Data provenance is PubChem BioAssay (EPA / NIEHS).

protocol.summary: CCTE_Shafer_MEA_dev_active_electrodes_number: CCTE's Neural Network Formation Assay for Number of Active Electrodes, Shafer Lab (AID 2284040);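 on AC50: potency for loss of active electrodes versus DMSO so lower counts are hits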
Results filed as inconclusive are left out. Activity calls are given as the source filed them. How the source made its calls: active means hit-call score of the fitted dose curve at least 0.9, where 1 is the maximum; inconclusive means response in the unintended direction; inactive means score below 0.9.
reported.endpoint: AC50

# molecule, reported.endpoint, result
measured = [
    ("CC1(c2ccc(Oc3ccccc3)cc2)OC(=O)N(Nc2ccccc2)C1=O (stereo not given)", "AC50", "4.84 µM (active)"),
    ("CCC(C)(C)C(=O)OC1=C(c2ccc(Cl)cc2Cl)C(=O)OC12CCCCC2", "AC50", "inactive"),
    ("O=C(O)COc1ccc(Cl)cc1Cl", "AC50", "50 µM (active)"),
    ("Oc1cc(Cl)ccc1Oc1ccc(Cl)cc1Cl", "AC50", "9.79 µM (active)"),
]

Quick check: AC50 of ClC1C(Cl)C(Cl)C(Cl)C(Cl)C1Cl (stereo not given) ?
inactive
